target: HLA-DQ2 (Homo sapiens, UniProt P01909+P01920); assay: Inhibition of IL-2 secretion by TCR transductants stimulated by α-gliadin peptides presented by HLA-DQ2 expressing K562 cells (ELISA); assay type: cell-based; details: inhibition of IL-2 secretion at 200 uM; tested as trans racemate unless otherwise noted; lines naming several Examples = stereoisomer mixture of those Examples
Sequence (P01920 33-261 limits assumed, other chains not shown): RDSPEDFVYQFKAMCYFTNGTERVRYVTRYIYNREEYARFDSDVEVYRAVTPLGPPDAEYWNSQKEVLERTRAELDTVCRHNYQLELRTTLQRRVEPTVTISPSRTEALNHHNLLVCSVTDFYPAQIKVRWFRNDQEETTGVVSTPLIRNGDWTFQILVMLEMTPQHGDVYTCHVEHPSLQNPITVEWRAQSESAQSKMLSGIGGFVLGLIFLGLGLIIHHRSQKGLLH
endpointName: % Inh at 200 uM

In [3]: df
Out[3]:
                                    compound     endpointname     datavalue
 0  O=CNc1cccc(OCC(=O)N2CCN(C(=O)[C@@H]3C[C@H]3c3ccccc3)CC2)c1 [Example 94]  % Inh at 200 uM  C (C=25-49%)
 1  O=C(COc1cccc(F)c1)N1CCN(C(=O)[C@@H]2C[C@H]2c2ccccc2)CC1 [Example 99]  % Inh at 200 uM  B (B=50-74%)
 2  COC(=O)c1ccccc1OCC(=O)N1CCN(C(=O)[C@@H]2C[C@H]2c2ccccc2)CC1 [Example 100]  % Inh at 200 uM  C (C=25-49%)
 3  COC(=O)c1cccc(OCC(=O)N2CCN(C(=O)[C@@H]3C[C@H]3c3ccccc3)CC2)c1 [Example 101]  % Inh at 200 uM    A (A=≥75%)
 4  O=C(c1ccccc1C(F)(F)F)N1CCN(C(=O)C2CC2c2ccc3c(c2)OCO3)CC1 (stereo not shown) [Example 21]  % Inh at 200 uM  C (C=25-49%)
 5  O=C(CSC1CCCCC1)N1CCN(C(=O)[C@@H]2C[C@H]2c2ccccc2)CC1 [Example 41]  % Inh at 200 uM  B (B=50-74%)
 6  O=CNc1ccccc1SCC(=O)N1CCN(C(=O)[C@@H]2C[C@H]2c2ccccc2)CC1 [Example 86]  % Inh at 200 uM  C (C=25-49%)
 7  O=C(CSc1ccc(Cl)cc1)N1CCN(C(=O)[C@@H]2C[C@H]2c2ccccc2)CC1 (relative stereo) [Example 57]  % Inh at 200 uM  B (B=50-74%)
 8  Cc1cccc(SCC(=O)N2CCN(C(=O)[C@@H]3C[C@H]3c3ccccc3)CC2)c1 [Example 51]  % Inh at 200 uM    A (A=≥75%)
 9  Cc1cc(F)ccc1SCC(=O)N1CCN(C(=O)[C@@H]2C[C@H]2c2ccccc2)CC1 (relative stereo) [Example 61]  % Inh at 200 uM  B (B=50-74%)
10  O=C(CSc1ccc(O)cc1)N1CCN(C(=O)[C@@H]2C[C@H]2c2ccccc2)CC1 [Example 76]  % Inh at 200 uM  C (C=25-49%)
11  O=C(C1CCCC1)N1CCN(C(=O)C2CC2c2ccc3c(c2)OCO3)CC1 (stereo not shown) [Example 25]  % Inh at 200 uM    A (A=≥75%)
12  CC(C)c1ccc(SCC(=O)N2CCN(C(=O)[C@@H]3C[C@H]3c3ccccc3)CC2)cc1 (relative stereo) [Example 54]  % Inh at 200 uM  B (B=50-74%)
13  Cc1cc(C(=O)N2CCN(C(=O)C3CC3c3ccc4c(c3)OCO4)CC2)c(C)o1 (stereo not shown) [Example 8]  % Inh at 200 uM    A (A=≥75%)
14  O=C(CSc1ccccc1F)N1CCN(C(=O)[C@@H]2C[C@H]2c2ccccc2)CC1 (relative stereo) [Example 58]  % Inh at 200 uM    A (A=≥75%)

====

target: HLA-DQ2 (Homo sapiens, UniProt P01909+P01920); test: Inhibition of IL-2 secretion by TCR transductants stimulated by α-gliadin peptides presented by HLA-DQ2 expressing K562 cells (ELISA); type: cell-based; details: inhibition of IL-2 secretion at 200 uM; tested as trans racemate unless otherwise noted; lines naming several Examples = stereoisomer mixture of those Examples
endpointName: % Inh at 200 uM

>>> df
                                    compound     endpointname     datavalue
 0  CCCCSCC(=O)N1CCN(C(=O)[C@@H]2C[C@H]2c2ccccc2)CC1 (relative stereo) [Example 47]  % Inh at 200 uM  B (B=50-74%)
 1  Cc1ccc(SCC(=O)N2CCN(C(=O)[C@@H]3C[C@H]3c3ccccc3)CC2)c(Cl)c1 (relative stereo) [Example 84]  % Inh at 200 uM    A (A=≥75%)
 2  O=C(CN(C(=O)OCc1ccccc1)C1CCCC1)N1CCN(C(=O)[C@@H]2CC2c2ccccc2)CC1 (stereo partly drawn) [Example 83]  % Inh at 200 uM    A (A=≥75%)
 3  CSCC(=O)N1CCN(C(=O)[C@@H]2C[C@H]2c2ccccc2)CC1 (relative stereo) [Example 43]  % Inh at 200 uM  C (C=25-49%)
 4  O=C(CSC1CCCC1)N1CCN(C(=O)[C@H]2C[C@@H]2c2ccccc2)CC1 [Example 13]  % Inh at 200 uM    A (A=≥75%)
 5  Cc1ccc(SCC(=O)N2CCN(C(=O)[C@@H]3C[C@H]3c3ccccc3)CC2)c(F)c1 (relative stereo) [Example 71]  % Inh at 200 uM    A (A=≥75%)
 6  COC(=O)c1ccc(OCC(=O)N2CCN(C(=O)[C@@H]3C[C@H]3c3ccccc3)CC2)cc1 (relative stereo) [Example 106]  % Inh at 200 uM    A (A=≥75%)
 7  NC(=O)c1ccc(OCC(=O)N2CCN(C(=O)[C@@H]3C[C@H]3c3ccccc3)CC2)cc1 [Example 89]  % Inh at 200 uM  C (C=25-49%)
 8  Cc1ccc(SCC(=O)N2CCN(C(=O)[C@@H]3C[C@H]3c3ccccc3)CC2)cc1 [Example 53]  % Inh at 200 uM  B (B=50-74%)
 9  O=C(CS(=O)(=O)C1CCCC1)N1CCN(C(=O)[C@@H]2CC2c2ccccc2)CC1 (stereo partly drawn) [Example 102]  % Inh at 200 uM  C (C=25-49%)
10  CC(C)OCC(=O)N1CCN(C(=O)[C@@H]2C[C@H]2c2ccccc2)CC1 (relative stereo) [Example 44]  % Inh at 200 uM  C (C=25-49%)
11  COc1ccc(SCC(=O)N2CCN(C(=O)[C@@H]3C[C@H]3c3ccccc3)CC2)cc1 [Example 75]  % Inh at 200 uM  B (B=50-74%)
12  O=C(CSc1ccccc1)N1CCN(C(=O)[C@@H]2C[C@H]2c2ccccc2)CC1 (relative stereo) [Example 49]  % Inh at 200 uM  C (C=25-49%)
13  CS(=O)(=O)N1CCC(C(=O)N2CCN(C(=O)C3CC3c3ccc4c(c3)OCO4)CC2)CC1 (stereo not drawn) [Example 26]  % Inh at 200 uM  C (C=25-49%)

====

target: HLA-DQ2 (Homo sapiens, UniProt P01909+P01920); test: Inhibition of IL-2 secretion by TCR transductants stimulated by α-gliadin peptides presented by HLA-DQ2 expressing K562 cells (ELISA); assay type: cell-based; conditions: inhibition of IL-2 secretion at 200 uM; tested as trans racemate unless otherwise noted; lines naming several Examples = stereoisomer mixture of those Examples
endpointName: % Inh at 200 uM

>>> print(df.to_string())
                                   molecule     endpointname     datavalue
0  CCOc1ccccc1C(=O)N1CCN(C(=O)C2CC2c2ccc3c(c2)OCO3)CC1 (centres unmarked) [Example 17]  % Inh at 200 uM  C (C=25-49%)
1  O=C(c1cc(Cl)ccc1Cl)N1CCN(C(=O)C2CC2c2ccc3c(c2)OCO3)CC1 (centres unmarked) [Example 18]  % Inh at 200 uM    A (A=≥75%)
2  O=C(CNC1CCCC1)N1CCN(C(=O)[C@H]2CC2c2ccccc2)CC1 (some centres unmarked) [Example 81]  % Inh at 200 uM    A (A=≥75%)
3  O=C(CSC1CCCC1)N1CCN(C(=O)[C@@H]2C[C@H]2c2ccc(F)cc2)CC1 [Example 68]  % Inh at 200 uM  C (C=25-49%)
4  NC(=O)c1ccccc1OCC(=O)N1CCN(C(=O)[C@@H]2C[C@H]2c2ccccc2)CC1 [Example 90]  % Inh at 200 uM  B (B=50-74%)
5  NC(=O)c1cccc(OCC(=O)N2CCN(C(=O)[C@@H]3C[C@H]3c3ccccc3)CC2)c1 [Example 91]  % Inh at 200 uM  B (B=50-74%)
6  COc1ccccc1[C@H]1C[C@@H]1C(=O)N1CCN(C(=O)CSC2CCCC2)CC1 [Example 34]  % Inh at 200 uM  B (B=50-74%)
7  CCCCOCC(=O)N1CCN(C(=O)[C@@H]2C[C@H]2c2ccccc2)CC1 (relative stereo) [Example 46]  % Inh at 200 uM  B (B=50-74%)
